tested on: SK-MEL-28 melanoma; test: NCI tumour cell line growth inhibition, 48 h
Some compounds, each annotated with its measured TGI.

1. N/C(=N\N=C/c1ccccc1O)NO	> 100 µM
2. CCOC(=O)Nc1cc2nnc(-c3ccccc3)nc2c(N)n1	> 100 µM

Here is the next item to consider.
Problem: Quick one: TGI for COc1cc(C2SC(N)=Nc3c2c(C)nn3C(=O)c2ccccc2O)cc(OC)c1OC (stereo not drawn) ?
Solution: > 10 µM

###

test system: UO-31 renal; assay: NCI tumour cell line growth inhibition, 48 h
*1 amine or outer side, *2 acyl side, *3 side chain or, on linkers, in order; H or OH if unused. Where a SMILES comes first, the peptide text is derived from it. [ ]: non-standard residue; d: D form. The star is where a group is joined. X31 = CC(=O)N(C)SCC(N[*:1])C(=O)[*:2]; X47 = CC(=O)N(C)SCC(N*)/C(O)=N\O; Cbz = O=C(OCc1ccccc1)*; Bn = c1ccc(C*)cc1; For = O=C*
Quantity: TGI

Completed entries (count: 4):
1. CC(=O)N(C)SCC(NC(=O)C(Cc1ccccc1)NC(=O)OCc1ccccc1)C(=O)NC(Cc1ccccc1)C(=O)NC(Cc1cn(C=O)c2ccccc12)C(=O)NC(CCCCNC(=O)OCc1ccccc1)C(=O)NC(C(=O)NC(CSN(C)C(C)=O)/C(O)=N\O)C(C)OCc1ccccc1 (stereo not given) (Cbz-F[X31]FW(For)K(Cbz)T(Bn)-X47; configuration not given here)	> 100 µM
2. COc1cccc2c1C(=O)C=CC2=O	28.9 µM
3. CC[C@@]1(N(C)C)C(=O)OCc2c1cc1n(c2=O)Cc2cc3ccccc3nc2-1	77 µM
4. COc1cc(C(=O)/C=C/c2c(C)n([O-])c3ccc(C)cc3[n+]2=O)cc(OC)c1OC	10.1 µM

Problem: Quick one: TGI for COc1cc2c3c(n(CCCN)c(=O)c2cc1OC)-c1ccccc1C3=O ?
Solution: 13.1 µM
